Test: in vitro
Conditions: human, hela cells, % viability
metric.name: viability at 28.5 h, 10 µM (%)
The reply should be a number in %, with the unit left off.

compound | unit.info | numeric.readout
CC(C)Nc1nccnc1-c1cccnc1 | % | 98.9
c1c2c(cc3sc(N4CCCC4)nc13)OCCO2 | % | 69.6
COc1ccc(NC(=O)CSc2ncnc3ccccc23)cc1 | % | 94
O=C(Nc1ccc(Oc2ccccc2)cc1)c1cc([N+](=O)[O-])cc2cn[nH]c12 | % | 82.5
CN(C)C(CNS(=O)(=O)c1ccc2[nH]c(=O)[nH]c(=O)c2c1)c1ccccc1Cl (stereo not drawn) | % | 86.7
O=c1[nH]c2ncc(-c3cccc(CO)c3)nc2n1CC1CC1 | % | 63.9
CCCCN1CCC(CNc2nccc3sc(S(=O)(=O)NC4CCC4)cc23)CC1 [CBK038275C] | % | 95.9
NC(=O)C1(N2CCCCC2)CCN(C(=O)CSc2nnc(-c3ccccc3)n2C2CCCCC2)CC1 | % | 101

Quick check: viability at 28.5 h, 10 µM of Cc1noc2nc(-c3ccco3)cc(C(=O)N(C)CCOc3ccccc3)c12 ?
90.1

Query (compound): CCn1cc(C(=O)O)c(=O)c2cc(F)c(N(C)CCc3ccc(OC)c(OC)c3)cc21 ; field requested: viability at 28.5 h, 10 µM
97.1

Sample CC(=O)Nc1ccc(Oc2cc(C)nc(C3CCNCC3)c2)cc1 — what was its viability at 28.5 h, 10 µM?
86.5

Item under review: O=C(NCCc1ccc(Cl)cc1)C1CCN(C(=O)CCc2ccccc2F)C1 (stereo not drawn) . Reported viability at 28.5 h, 10 µM?
84.1

Record request: viability at 28.5 h, 10 µM value, item O=C(Nc1cnc(-c2cccc(C(F)(F)F)c2)c(-c2cccnc2)n1)c1cc(-c2ccco2)n[nH]1
104

Requested field: viability at 28.5 h, 10 µM. Item: CC(C)C(=O)N1CCC[C@H]1Cn1nc(-c2cccs2)ccc1=O
97.8

Need viability at 28.5 h, 10 µM of O=C(O)/C=N/NC(=O)c1ccco1 , thanks.
89.5

Param item = Cc1cccc(OCCCn2cncc2-c2cn(C)nc2C)c1 ; retrieve measured viability at 28.5 h, 10 µM.
90

Quick one: viability at 28.5 h, 10 µM of CCN(CC(O)COc1cc(C)c(Cl)c(C)c1)S(=O)(=O)O (stereo not drawn) [CBK026767N] ?
106

Any idea what its viability at 28.5 h, 10 µM is? The compound is CC(C)Nc1cc(Sc2ccc(F)cc2)ncn1
94.2

Any idea what its viability at 28.5 h, 10 µM is? The compound is Cc1cc(C2(C(F)(F)F)C=C3c4ccccc4CC(C)(C)N3C2=O)cc(C)c1O (stereo not drawn)
99.2

What value of viability at 28.5 h, 10 µM has been recorded for this entry: O=C(c1cnc2ccccc2c1)N1CCC(F)CC1
102

Quick one: viability at 28.5 h, 10 µM of CCCCc1ccc(N)c(C)c1 [CBK164057C] ?
89.9

* * *

Experiment: in vitro
Settings: human, hela cells, % viability
Reported values of viability at 28.5 h, 10 µM for individual entries
// units = %; emit number, no label

Name the reported viability at 28.5 h, 10 µM value associated with the molecule Cc1ccc(OCc2nnc(SCC(=O)c3cccc([N+](=O)[O-])c3)n2C)cc1
86.9

Value lookup for viability at 28.5 h, 10 µM; key = CC(C)c1cccc(-n2cc(O)c(C(=O)NCCCn3cccn3)n2)c1
113

* * *

Assay: in vitro
Details: human, hela cells, % viability
This listing pairs compounds with measured viability at 28.5 h, 10 µM.
Form entry: value (%) — number only.

Need viability at 28.5 h, 10 µM, item Cn1ncc2c(C(=O)O)cc(-c3ccccc3)nc21
88.9

Given Cc1cc(C(F)F)n2nc(C(=O)Nc3ccc(S(=O)(=O)NC45CC6CC(CC(C6)C4)C5)cc3)nc2n1 , state its recorded viability at 28.5 h, 10 µM.
96.2

Fill in the blank: the reported viability at 28.5 h, 10 µM of O=C(O)c1cc(-n2c(S)nnc2-c2cnccn2)ccc1Cl is ____.
86.2

Entry CS(=O)(=O)Nc1cc2cccnc2c(-c2ccc3c(c2)CCO3)n1 has what viability at 28.5 h, 10 µM?
101

State the recorded viability at 28.5 h, 10 µM for this entry: Cc1nn(CCC(=O)NC2CCOc3ccccc32)c(C)c1Cl (stereo not drawn)
96.7

Value lookup for viability at 28.5 h, 10 µM; key = Cc1nc(COc2ccc(F)cc2)sc1C(=O)O
98

Look up viability at 28.5 h, 10 µM: NC(=O)c1c(NC(=O)C2CC(=O)OC23CCCCC3)sc2c1CCCCC2 (stereo not drawn)
102

What value of viability at 28.5 h, 10 µM has been recorded for this entry: CC(C)(C)C(=O)Nc1ccc(-c2ccc(NC(=O)C(C)(C)C)c(C(=O)O)c2)cc1C(=O)O
108

Tell me the measured viability at 28.5 h, 10 µM of CCN(CC)C(=O)N1CCN(CCCC(=O)c2ccc(F)cc2)CC1 [CBK025042C] , please.
85.4

* * *

Assay: in vitro
Settings: human, hela cells, % viability
Each item that follows carries a reported viability at 28.5 h, 10 µM.
Could you kindly put the unit after your number?

The following compounds have reported results that may help.
compound | metric.name | result
c1csc(-c2cn3ccnc3c(NCC3CC3)n2)c1 | viability at 28.5 h, 10 µM | 93.7%
O=C(Cc1ccccc1)Nc1ccc(Oc2ccc(C(=O)O)c(C(=O)O)c2)cc1 | viability at 28.5 h, 10 µM | 90.3%
N#Cc1c(NC(=O)CCn2cnnn2)sc2c1CCC2 | viability at 28.5 h, 10 µM | 93.5%
O=[N+]([O-])c1ccccc1CN1CCC(N2CCCCC2)CC1 | viability at 28.5 h, 10 µM | 88.7%
O=C(c1c(-c2ccccc2)nnc2ccccc12)N1CCN(CCO)CC1 | viability at 28.5 h, 10 µM | 87.3%
O=C(NC1CC1)N1CCN(CCCOc2ccc(F)cc2)CC1 [CBK025077C] | viability at 28.5 h, 10 µM | 111%

viability at 28.5 h, 10 µM lookup needed for Cc1oc2c(c1CC(=O)N(C)CCN(C)C)C(=O)CC(C)(C)C2 , thanks.
105%

Look up viability at 28.5 h, 10 µM for this compound: CC(=O)NCCc1nc2cc(NC(=O)Nc3ccccc3)ccc2n1C
103%

// lookup viability at 28.5 h, 10 µM for O=C(CN1C(=O)/C(=C/c2ccccc2)SC1=S)Nc1cccc(C(=O)O)c1
86.9%

Name the recorded viability at 28.5 h, 10 µM for COc1ccc(C(=O)Nc2noc3nc(C)ccc23)cc1OC .
89.7%

Endpoint output: viability at 28.5 h, 10 µM of COc1ccccc1CC(=O)N1CCC(Cc2cccc(-c3cccs3)c2)(C(N)=O)CC1 . Value?
93.3%

Request the reported viability at 28.5 h, 10 µM associated with COc1ccc(NC(=O)NS(=O)(=O)c2sc3ccc(Cl)cc3c2C)cc1OC
91.3%

Consider the compound shown here: Cc1ccc2oc(C(=O)N3CCN(CC(=O)N(C)C)CC3)c(C)c2c1 What is its recorded viability at 28.5 h, 10 µM?
94.2%

Item Cc1ccc(C(=O)NCCN2CCOCC2)cc1S(=O)(=O)N1CCCCC1 has what recorded viability at 28.5 h, 10 µM?
86.2%

* * *

Assay: in vitro
Conditions: human, hela cells, % viability
metric.name: viability at 28.5 h, 10 µM (%)
Give a bare numeral; the unit % is implied.

Worked set:
molecule | viability at 28.5 h, 10 µM, %
COc1ccc(CCNS(=O)(=O)c2cc([N+](=O)[O-])ccc2C)cc1OC [CBK267412] | 94.2
COc1cc(/C=C2/NC(=O)N(c3ccccc3)C2=O)ccc1OCc1ccc(C(=O)O)cc1 [CBK265139] | 84.6
Cc1nc2c(c(=O)[nH]1)CN(C(=O)Cc1c(F)cccc1Cl)CC2 [CBK283589] | 92.1
CC1(C)Cc2c(cnn2-c2ccc(F)cc2)C(NS(C)(=O)=O)C1 (centres unmarked) [CBK307403] | 92.3

Suppose we examine the molecule CS(=O)(=O)N1CCN(c2ccccc2NC(=O)CSc2ccc(Cl)cc2)CC1 [CBK267607] ; what viability at 28.5 h, 10 µM value has been reported?
83.7

* * *

Test: in vitro
Settings: human, hela cells, % viability
Please assign no (0) whenever viability at 28.5 h, 10 µM is at or above 90%, and yes (1) whenever it is below.

compound | group
N#CC1CCCc2c1[nH]c1ccc(Br)cc21 (centres unmarked) | yes (1)

Continue with the next compound.
Quick check: does O=C(O)CCC(=O)Nc1nc(-c2ccc(Cl)cc2)cs1 have viability at 28.5 h, 10 µM under 90%?
yes (1)
